Tested on: mice with essential tremor
Experiment: Rotating rod test in harmaline induced mouse model of essential tremor
Format: in vivo, ICR male mice
Details: 15 minutes after modeling with harmaline, immediately before administration; mean ± SD
Counter-ions that a name gives are not always drawn.
property_name: Residence Time on Rod, Time 0 (s)
Report only the number, with the unit s understood.

Example cases with answers are listed next.
CC1C(=O)OC2C(O)C34C5CC(C(C)(C)C)C36C(OC(=O)C6O)OC4(C(=O)O5)C12O (stereo not shown) [Ginkgolide B, ginkgolide B] : 43.9
C[C@@H]1C(=O)O[C@H]2C[C@@]34[C@H]5C[C@@H](C(C)(C)C)[C@]36[C@@H](OC(=O)[C@@H]6O)O[C@@]4(C(=O)O5)[C@]21O [Ginkgolide A, ginkgolide A] : 42.6

Q: Which Residence Time on Rod, Time 0 value belongs to CC(C)NCC(O)COc1cccc2ccccc12 (stereo not shown) [Propranolol hydrochloride tablet, Propranolol hydrochloride, reference compound] ?
Result: 41.6

Q: Likewise for CC(C)(C)[C@]1(O)CC2OC(=O)CC23C(=O)OC2OC(=O)[C@H](O)C231 (stereo partly shown) [Bilobalide, bilobalide] ?
Result: 40.0

* * *

Test system: mice with essential tremor
Test: Rotating rod test in harmaline induced mouse model of essential tremor
Assay type: in vivo, ICR male mice
Conditions: 90 min after time 0/administration; test groups 5 mg/kg·bw intraperitoneal, propranolol 2 mg/kg·bw gavage; mean ± SD
Structures can show the parent of a compound that is named as a salt.
property_name: Residence Time on Rod, 90 min (s)
Report only the number, with the unit s understood.

Example cases with answers are listed next.
CC(C)(C)[C@]1(O)CC2OC(=O)CC23C(=O)OC2OC(=O)[C@H](O)C231 (stereo partly shown) [Bilobalide, bilobalide] : 90.6
C[C@@H]1C(=O)O[C@H]2C[C@@]34[C@H]5C[C@@H](C(C)(C)C)[C@]36[C@@H](OC(=O)[C@@H]6O)O[C@@]4(C(=O)O5)[C@]21O [Ginkgolide A, ginkgolide A] : 91.4

Q: Checklist item: Residence Time on Rod, 90 min tested on mice with essential tremor, entry CC1C(=O)OC2C(O)C34C5CC(C(C)(C)C)C36C(OC(=O)C6O)OC4(C(=O)O5)C12O (stereo not shown) [Ginkgolide B, ginkgolide B] , value?
Result: 100.2

Q: Likewise for CC(C)NCC(O)COc1cccc2ccccc12 (stereo not shown) [Propranolol hydrochloride tablet, Propranolol hydrochloride, reference compound] ?
Result: 119.3

* * *

Test system: mice with essential tremor
Assay: Rotating rod test in harmaline induced mouse model of essential tremor
Format: in vivo, ICR male mice
Conditions: baseline before harmaline and before administration; mean ± SD, 10 mice per group; max 180 seconds
Where a name gives a salt, the structure may show the parent alone.
The compounds listed here are annotated with their Residence Time on Rod, Pre-harmaline.
Report only the number, with the unit s understood.

C[C@@H]1C(=O)O[C@H]2C[C@@]34[C@H]5C[C@@H](C(C)(C)C)[C@]36[C@@H](OC(=O)[C@@H]6O)O[C@@]4(C(=O)O5)[C@]21O [Ginkgolide A, ginkgolide A] : 170.6
CC1C(=O)OC2C(O)C34C5CC(C(C)(C)C)C36C(OC(=O)C6O)OC4(C(=O)O5)C12O (stereo not shown) [Ginkgolide B, ginkgolide B] : 175.7
CC(C)NCC(O)COc1cccc2ccccc12 (stereo not shown) [Propranolol hydrochloride tablet, Propranolol hydrochloride, reference compound] : 176.6

Q: Which Residence Time on Rod, Pre-harmaline value belongs to CC(C)(C)[C@]1(O)CC2OC(=O)CC23C(=O)OC2OC(=O)[C@H](O)C231 (stereo partly shown) [Bilobalide, bilobalide] ?
Result: 171.6
